Settings: buffer; pH 7.4; 200.0 µM
Endpoint: solubility kinetic (µg/mL)
Form entry: value (µg/mL) — number only.

Inquiry: Find the recorded solubility kinetic belonging to `CCCc1cc(=O)[nH]c(SCC(=O)Nc2ccc(C(=O)Nc3ccccc3OC)cc2)n1` and report it.
Reply text: 6.7

Inquiry: Do the same for `COc1ccc(C(=O)/C=C2\Sc3ccccc3N2C)cc1` please
Reply text: 0.7

Inquiry: Do the same for `Cc1ccc(C(=O)Nc2cccc(NC(=O)c3cccs3)c2)c(C)c1` please
Reply text: 0.6

Inquiry: Do the same for `N#Cc1ccc(NC(=S)NC(=O)C2CCCCC2)cc1` please
Reply text: 1.6

Inquiry: Do the same for `CC1(C)CCc2cc(-c3ccnc(=S)[nH]3)ccc2O1` please
Reply text: 8.5

Inquiry: Do the same for `CN(C)c1ccc(CNc2ncnc3sccc23)cc1` please
Reply text: 29.7

Inquiry: Do the same for `COc1cccc(NC(=O)C2(S(=O)(=O)c3ccc(Cl)cc3)CC2)c1` please
Reply text: 33.1

Inquiry: Do the same for `CC(C)Cc1cc(C(=O)Nc2ccccc2)c2ccccc2n1` please
Reply text: 3.9

Inquiry: Do the same for `CSc1cccc(NC(=S)NC(=O)CCc2ccccc2)c1` please
Reply text: 0.7

Inquiry: Do the same for `O=C(NCc1ccccc1)C1(c2cccc(F)c2)CCCC1` please
Reply text: 12.2

Inquiry: Do the same for `CCc1nc(Nc2cccc(OC)c2)c2oc3ccccc3c2n1.Cl` please
Reply text: 0.5

Inquiry: Do the same for `O=c1c(Cc2ccccc2)c(O)ccn1Cc1ccco1` please
Reply text: 25.9

Inquiry: Do the same for `CSc1cc(C)c(OCC(=O)Nc2ccc(NC(C)=O)cc2)c(C)c1` please
Reply text: 4.4

Inquiry: Do the same for `COc1ccccc1C(=O)OCC(=O)Nc1ccc(Cl)cn1` please
Reply text: 5.1

Inquiry: Do the same for `Cc1cc(C(=O)Nc2ccc([N+](=O)[O-])cn2)cs1` please
Reply text: 6.2

Inquiry: Do the same for CCOC(=O)c1c(NC(=O)C2CCCO2)sc(C)c1C (stereo not given) please
Reply text: 30

Inquiry: Do the same for `Cn1c(=S)[nH]c2c(c1=O)C(C)(C)Cc1ccccc1-2` please
Reply text: 3

Inquiry: Do the same for `C=C(C)Cn1c(N2CCCC2)nc2c1c(=O)n(C)c(=O)n2C` please
Reply text: 33.6

Inquiry: Do the same for COC(=O)C1=C(C)NC(=O)NC1c1ccccc1Cl (stereo not given) please
Reply text: 18.5
